- MEASUREMENT TARGET: HLA-A*03:01
- TEST SUMMARY: IEDB peptide-MHC binding, purified MHC/direct/fluorescence; filed as Kd, often an IC50 or EC50 that approximates it; bounds were set here for any values at or beyond the usual limits of such assays
- TEST CONDITIONS: source organism: Pseudomonas aeruginosa
PARAMETER MEASURED: Kd (nM)
Express the result in nM but write the number alone.

// assay HLA-A*03:01, entry `RTGTRLLGR` , Kd value = 252

* * *

- MEASUREMENT TARGET: HLA-A*32:01
- TEST SUMMARY: IEDB peptide-MHC binding, purified MHC/competitive/radioactivity; filed as Kd, often an IC50 or EC50 that approximates it; bounds were set here for any values at or beyond the usual limits of such assays
- TEST CONDITIONS: source organism: Mammarenavirus brazilense
The sequences listed here are annotated with their pKd.
pKd (log units): -log10 of the concentration in mol/L.

KTFFWFNEV 8.14

Reported pKd ( `HSIKRNYPY` ) = 5.76

* * *

- MEASUREMENT TARGET: HLA-A*69:01
- TEST SUMMARY: IEDB peptide-MHC binding, purified MHC/direct/fluorescence; filed as Kd, often an IC50 or EC50 that approximates it; bounds were set here for any values at or beyond the usual limits of such assays
- TEST CONDITIONS: source organism: Cryptosporidium parvum
PARAMETER MEASURED: Kd

Record `NTSTCFQEY` . Reported Kd: ≥ 20 µM

* * *

- MEASUREMENT TARGET: HLA-B*15:01
- TEST SUMMARY: IEDB peptide-MHC binding, purified MHC/direct/fluorescence; filed as Kd, often an IC50 or EC50 that approximates it; bounds were set here for any values at or beyond the usual limits of such assays
- TEST CONDITIONS: source organism: Camelpox virus M-96
PARAMETER MEASURED: Kd

Entry under test: `EYKKFIATF` . Its Kd was ≥ 20 µM

* * *

- MEASUREMENT TARGET: HLA-B*07:02
- TEST SUMMARY: IEDB peptide-MHC binding, purified MHC/direct/fluorescence; filed as Kd, often an IC50 or EC50 that approximates it; bounds were set here for any values at or beyond the usual limits of such assays
- TEST CONDITIONS: source organism: Reston ebolavirus - Reston
PARAMETER MEASURED: Kd

Item `SKLRALLTL` ; assay system HLA-B*07:02; Kd reported as ≥ 20 µM

* * *

- MEASUREMENT TARGET: HLA-A*80:01
- TEST SUMMARY: IEDB peptide-MHC binding, purified MHC/competitive/fluorescence; filed as Kd, often an IC50 or EC50 that approximates it; bounds were set here for any values at or beyond the usual limits of such assays
- TEST CONDITIONS: source organism: Homo sapiens
PARAMETER MEASURED: Kd

For this sequence ( `HLLCQAFSV` ), measured Kd is ≥ 20 µM

* * *

Kd values for the sequences below.
- MEASUREMENT TARGET: HLA-A*01:01
- TEST SUMMARY: IEDB peptide-MHC binding, purified MHC/direct/fluorescence; filed as Kd, often an IC50 or EC50 that approximates it; bounds were set here for any values at or beyond the usual limits of such assays
- TEST CONDITIONS: source organism: Giardia lamblia ATCC 50803
Write down the numeric answer in µM and omit the unit.

// `FMGRLGPEY` : Kd value = 4.09

Briefly, Kd measured for `LTAHYCFLY` : 0.007

* * *

- MEASUREMENT TARGET: HLA-A*02:01
- TEST SUMMARY: IEDB peptide-MHC binding, purified MHC/competitive/fluorescence; filed as Kd, often an IC50 or EC50 that approximates it; bounds were set here for any values at or beyond the usual limits of such assays
- TEST CONDITIONS: source organism: Shigella flexneri 5 str. 8401
PARAMETER MEASURED: pKd
Note: pKd values are expressed as the negative base-10 logarithm of concentration in M.

Entry `IIMRRFFYF` , HLA-A*02:01 data, pKd value: 7.48

* * *

- MEASUREMENT TARGET: HLA-A*80:01
- TEST SUMMARY: IEDB peptide-MHC binding, purified MHC/direct/fluorescence; filed as Kd, often an IC50 or EC50 that approximates it; bounds were set here for any values at or beyond the usual limits of such assays
- TEST CONDITIONS: source organism: Cryptosporidium parvum Iowa II
pKd: −log10 of the molar value.
PARAMETER MEASURED: pKd

What the record says about `RAIMTTWTV` : pKd is ≤ 4.70

* * *

Overview of recorded pKd for various sequences
- MEASUREMENT TARGET: HLA-A*02:03
- TEST SUMMARY: IEDB peptide-MHC binding, purified MHC/competitive/radioactivity; filed as Kd, often an IC50 or EC50 that approximates it; bounds were set here for any values at or beyond the usual limits of such assays
- TEST CONDITIONS: source organism: Vaccinia virus WR
When answering, recall that pKd equals minus log10 of the concentration in mol/L, and write that number alone.

Sample answers from the record:
NLTQLFKYV 6.62
VAVNKSNKPL 5.29
YLLGDSDSVA 7.64
RLYNSLKRFT 6.35
DLKHATDYIA 5.53

Entry under test: `YLGHSAGFT` . Its pKd was 6.65

// field: pKd; key: `DIYDAVRAFL` ; value = 5.16

Consider `LTNKKYRCMA` . Its measured pKd is 5.27

Item: `KTDGAVTSPL` | pKd: 6.40

Looking up `NIISYIILFI` , I see its pKd listed as 6.88

Lab note: measured pKd of `FTNSQIFNII` was 6.34

The sequence identified as `KTKISVEKI` registered its pKd at 6.95

pKd measured on `YIENTNQGNI` = 6.24

Form: sequence = `YTGGYDVSL` ; pKd = 5.22

Input `SAFNDDGIYI` . Output pKd: 7.17

Item: `LLTACTIFYI` | pKd: 7.93

The sequence listed as `SINNQLMYDI` has a reported pKd of 6.32

// pKd value for `DTIAHINTLI` : 6.94

* * *

- MEASUREMENT TARGET: HLA-A*26:01
- TEST SUMMARY: IEDB peptide-MHC binding, purified MHC/direct/fluorescence; filed as Kd, often an IC50 or EC50 that approximates it; bounds were set here for any values at or beyond the usual limits of such assays
- TEST CONDITIONS: source organism: Escherichia coli O157:H7
pKd: −log10 of the molar value.
PARAMETER MEASURED: pKd

Note to self: pKd recorded for `PSSKPDWFY` was ≤ 4.70

* * *

Each entry below lists one item and its recorded Kd value.
- MEASUREMENT TARGET: HLA-B*51:01
- TEST SUMMARY: IEDB peptide-MHC binding, purified MHC/competitive/radioactivity; filed as Kd, often an IC50 or EC50 that approximates it; bounds were set here for any values at or beyond the usual limits of such assays
- TEST CONDITIONS: source organism: Vaccinia virus WR

IPYSRVNHA 0.0232 µM
LPMIIGEPII 0.456 µM
SPLPSLEYGA ≥ 69.6 µM
DPDHYKDYA ≥ 22.5 µM
LPPFTQHLL 0.0186 µM

Query `LLTACTIFYI` on HLA-B*51:01; Kd returned: ≥ 69.6 µM

// Kd (HLA-B*51:01) for `EVVMAYVGIK` = ≥ 23.2 µM

Test item `SPTEMVDVSM` ; HLA-B*51:01; reported Kd was ≥ 69.6 µM

With HLA-B*51:01 as the test system, `EPSGNNYHIL` showed Kd of ≥ 69.6 µM

Let me check: `KPFNNILNLI` , system HLA-B*51:01, measured Kd is ≥ 10 µM

* * *

- MEASUREMENT TARGET: HLA-B*58:01
- TEST SUMMARY: IEDB peptide-MHC binding, purified MHC/direct/fluorescence; filed as Kd, often an IC50 or EC50 that approximates it; bounds were set here for any values at or beyond the usual limits of such assays
- TEST CONDITIONS: source organism: Giardia lamblia ATCC 50803
PARAMETER MEASURED: Kd

Some solved cases for reference:
KSNRIPFLY 0.002 µM
FMGRLGPEY ≥ 20 µM

In the following, a different sequence is considered.
Short answer for `IFKNLTKPL` : Kd was ≥ 20 µM

* * *

- MEASUREMENT TARGET: HLA-B*15:02
- TEST SUMMARY: IEDB peptide-MHC binding, purified MHC/competitive/fluorescence; filed as Kd, often an IC50 or EC50 that approximates it; bounds were set here for any values at or beyond the usual limits of such assays
- TEST CONDITIONS: source organism: Yersinia pestis CO92
PARAMETER MEASURED: Kd (µM)
Dear colleague, please return just the value in µM, with no unit written.

# sequence `ILRDGQRWY` ; its Kd = 0.0552
